The following compounds are listed with their measured z-score values.
# MEASUREMENT PROTOCOL: MM1S myeloma cell viability, profiling panel, resazurin fluorescence, basal, 24 h, PK04 Diversity Set (AID 1174);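 further: MM1S multiple myeloma cell line; test concentration not given here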
# EXPERIMENTAL PARAMETERS: higher = more signal, called active from +8 up or from −8 down
The source made the active and inactive calls.

Recorded z-score, per entry:
In plain terms, "O=C1C[C@@](C(=O)NCCN2CCOCC2)(c2ccc([N+](=O)[O-])cc2)[C@@H](c2ccc(CO)cc2I)N1C1CCCCC1" has a documented z-score of 1.11 (inactive)

In plain terms, "C=CC[C@@]1(C(=O)N2CCOCC2)N=C(c2ccc(OCCCO)cc2)O[C@@H]1c1ccccc1CN=[N+]=[N-]" has a documented z-score of 0.118 (inactive)

In plain terms, "CC(C)(C)OC(=O)CC[C@]1(C(=O)NCc2ccccc2)N=C(c2ccc(OCCCO)cc2)O[C@H]1c1ccccc1CN=[N+]=[N-]" has a documented z-score of -1.49 (inactive)

In plain terms, "CCOC(=O)C1=CC[C@@H](c2ccc(OCc3ccccc3)c(OC)c2)N(S(=O)(=O)c2ccc(C)cc2)[C@H]1c1ccc(SC)cc1" has a documented z-score of -0.107 (inactive)

In plain terms, "C=C(/C(=C/C[C@H](OC(C)=O)c1ccccc1OCCO)c1cc(C(=O)OC)ccc1OC)C(C)C" has a documented z-score of 0.121 (inactive)

In plain terms, C=CCC(OC(C)=O)[C@@H]1[C@@H](N(Cc2cc3ccccc3o2)C(=O)c2ccc(-c3ccccc3)cc2)c2cc(OCCCO)ccc2N1C(=O)c1ccc2ccccc2c1 (some centres undefined) has a documented z-score of 0.198 (inactive)

In plain terms, "O=C(NCC(F)(F)F)[C@@H]1c2ccccc2C(=O)N(Cc2cc(F)cc(C(F)(F)F)c2)[C@H]1c1ccc(CO)cc1" has a documented z-score of 0.0875 (inactive)

In plain terms, "CCOC(=O)C[C@H]1[C@H](OC(=O)c2cc3ccccc3oc2=O)[C@@H](NC(=O)c2ccc(-c3ccccc3)cc2)c2cc(OCCCO)ccc2N1C(=O)c1ccccc1" has a documented z-score of -0.005 (inactive)

In plain terms, CCCCCCCCCCC(O)C1C=CC2C(=O)N(C)C(=O)C2N1NC(=O)OC(C)(C)C (centres undefined) has a documented z-score of -4.74 (inactive)

In plain terms, "Cc1ccc(S[C@]2(C(=O)NCC(F)(F)F)CC(=O)N(C3CCCCC3)[C@@H]2c2ccc(CO)cc2I)cc1" has a documented z-score of 0.384 (inactive)

---
In plain terms, COc1cc2c(cc1O)C(C)N(Cc1ccc([N+](=O)[O-])o1)CC2 (centres undefined) has a documented z-score of -0.653 (inactive)

In plain terms, "COCCOC(=O)N1C(=O)[C@@]2(c3cc(C#CC4=CCCCC4)ccc31)[C@H](C(=O)N1CCCCCCC1)[C@H]1C(=O)O[C@H](c3ccccc3)[C@H](c3ccccc3)N1[C@@H]2c1ccc(O)cc1" has a documented z-score of 0.0499 (inactive)

In plain terms, C=CCC(OC(C)=O)[C@@H]1[C@@H](N(Cc2cccc3ccccc23)C(=O)c2cccc3ccccc23)c2cc(OCCCO)ccc2N1C(=O)c1ccc(-c2ccccc2)cc1 (some centres undefined) has a documented z-score of -1 (inactive)

In plain terms, "COC(=O)c1nc2oc1CC[C@@H](CO)NC(=O)N(C)Cc1cnnn1C[C@H](Cc1ccccc1)NC2=O" has a documented z-score of 1.09 (inactive)
